The reported measurements were obtained from paper PMC9482650.

target desc: T1, RHPN1, Q8TCX5
T1 sequence (Q8TCX5 508-602, limits assumed, looked up): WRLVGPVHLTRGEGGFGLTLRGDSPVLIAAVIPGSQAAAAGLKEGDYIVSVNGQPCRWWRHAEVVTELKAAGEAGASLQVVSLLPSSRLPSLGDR
assay name: holdup assay
Parameters: key: below the threshold = too weak to quantify, mostly under pKd 3.1 to 4
details: plain residues with an end cap or a label only (N-terminal biotin on a linker: ado-ado)
Label fulfilled when pKd >= 4; otherwise not fulfilled.

Completed entries (count: 6):
PEKVSNTTVV [IGSF5, Q9NSI5]: not fulfilled
PLATCDETSI [SEMA4F, O95754]: fulfilled
DYSNLRETDI [ADRA1D, P25100]: fulfilled
DSEEELPTRL [GRK6, P43250]: not fulfilled
YAEKRMLTEV [KCNA6, P17658]: not fulfilled
AKADAQESRL [PLCB2, Q00722]: fulfilled

Query binder follows.
Please tell me: is the binder SKQFDKNAYV [CLDN10, P78369] at or over 4 in terms of pKd?
not fulfilled
